Experiment: Healthy volunteer PK studies PN001/PN002 with IR capsules
Type: in vivo, human
Conditions: Average of the single-dose studies (dose 16)
Quantity Name: Cmax

## Task Fill in: Cmax of CC(C)c1ccc(CC(=O)N[C@H](C)c2ccc(OCC(F)(F)F)cn2)cc1 is ___
## Result 1060 nM

###

Experiment: Healthy volunteer PK studies PN001/PN002 with IR capsules
Assay type: in vivo, human
Conditions: PN001 Part 2, 18 mg, 1 dose, healthy volunteers
Quantity Name: Cmax (nM)
Give bare numbers, in nM.

## Task Fill in: Cmax of CC(C)c1ccc(CC(=O)N[C@H](C)c2ccc(OCC(F)(F)F)cn2)cc1 is ___
## Result 1180

###

Test: Healthy volunteer PK studies PN001/PN002 with IR capsules
Assay type: in vivo, human
Conditions: PN002 Part 2, 12 mg, 1 dose, healthy volunteers
Quantity Name: Cmax (nM)
Answers are plain numbers, in nM.

## Task Fill in: Cmax of CC(C)c1ccc(CC(=O)N[C@H](C)c2ccc(OCC(F)(F)F)cn2)cc1 is ___
## Result 798

###

Experiment: Healthy volunteer PK studies PN001/PN002 with IR capsules
Type: in vivo, human
Settings: PN002 Part 1, 18 mg, 1 dose, healthy volunteers
Quantity Name: Cmax (nM)
One number for each entry, in nM.

## Task Fill in: Cmax of CC(C)c1ccc(CC(=O)N[C@H](C)c2ccc(OCC(F)(F)F)cn2)cc1 [CX-8998] is ___
## Result 1330
